PROCEDURE DETAILS: Multiple-dose plasma pharmacokinetics
Type: in vivo, human
DETAILS: human, plasma, oral, 10 mg
MEASUREMENT TYPE: AUC (ng·h/mL)
Value expressed in ng·h/mL; do not type the unit.

Tell me AUC reported for "CCS(=O)(=O)N1CC(CC#N)(n2cc(-c3ncnc4[nH]ccc34)cn2)C1"
778

----------
PROCEDURE DETAILS: Single-dose plasma pharmacokinetics
Format: in vivo, human
DETAILS: human, plasma, po, 2 mg, tmax, single oral 2 mg, day 1, median (range), N = 8
MEASUREMENT TYPE: Tmax (h)
Value expressed in h; do not type the unit.

Tell me Tmax reported for CCS(=O)(=O)N1CC(CC#N)(n2cc(-c3ncnc4[nH]ccc34)cn2)C1 [Baricitinib]
1

----------
PROCEDURE DETAILS: Multiple-dose plasma pharmacokinetics
Type: in vivo, human
DETAILS: human, plasma, oral, 4 mg
MEASUREMENT TYPE: half-life (h)
Value expressed in h; do not type the unit.

Tell me half-life reported for "CCS(=O)(=O)N1CC(CC#N)(n2cc(-c3ncnc4[nH]ccc34)cn2)C1"
7.55

Cited source for all entries: paper PMC9292889
